Target: KiSS-1 receptor (Homo sapiens, UniProt Q969F8)
Sequence (Q969F8 whole entry): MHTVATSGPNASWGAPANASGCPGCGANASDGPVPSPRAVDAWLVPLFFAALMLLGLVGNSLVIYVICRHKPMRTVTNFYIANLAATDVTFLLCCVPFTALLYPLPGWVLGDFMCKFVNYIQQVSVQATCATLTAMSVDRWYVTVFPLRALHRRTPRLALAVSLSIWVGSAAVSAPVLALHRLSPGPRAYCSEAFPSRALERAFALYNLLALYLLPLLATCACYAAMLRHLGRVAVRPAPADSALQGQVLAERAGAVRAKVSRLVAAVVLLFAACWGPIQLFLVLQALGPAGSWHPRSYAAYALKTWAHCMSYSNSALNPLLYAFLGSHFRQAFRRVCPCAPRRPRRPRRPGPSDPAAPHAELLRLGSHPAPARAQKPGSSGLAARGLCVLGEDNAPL
Test: Agonist activity at human KISS1R expressed in CHO/dhfr cells assessed as increase in intracellular Ca2+ levels measured for 180 secs by Fluo 3-AM dye based FLIPR assay
Where a SMILES comes first, the peptide text is derived from it. [ ]: non-standard residue; d: D form. Arg(Me) = CNC(=N)NCCC[C@H](N)C(=O)O; Aib = CC(C)(N)C(=O)O; azaGly = NNC(=O)O
property-measured: pEC50
Numbers only, as −log10 of the molar value.

compound	reported-measurement
CNC(=N)NCCC[C@H](NC(=O)[C@H](CC(C)C)NC(=O)NNC(=O)[C@H](Cc1ccccc1)NC(=O)[C@@H](NC(=O)[C@H](CC(N)=O)NC(=O)C(C)(C)NC(=O)[C@@H](Cc1ccc(O)cc1)NC(C)=O)[C@@H](C)O)C(=O)N[C@@H](Cc1c[nH]c2ccccc12)C(N)=O (Ac-[dY][Aib]NTF[azaGly]L[Arg(Me)]W-NH2)	8.62
CNC(=N)NCCC[C@H](NC(=O)[C@H](CC(C)C)NC(=O)NNC(=O)[C@H](Cc1ccccc1)NC(=O)[C@@H](NC(=O)[C@H](CC(N)=O)NC(=O)[C@@H]1Cc2ccccc2CN1C(=O)[C@@H](Cc1ccc(O)cc1)NC(C)=O)[C@@H](C)O)C(=O)N[C@@H](Cc1c[nH]c2ccccc12)C(N)=O	9.31

Ask | Give pEC50 (KiSS-1 receptor (Homo sapiens, UniProt Q969F8)) of the following compound: CNC(=N)NCCC[C@H](NC(=O)[C@H](CC(C)C)NC(=O)NNC(=O)[C@H](Cc1ccccc1)NC(=O)[C@@H](NC(=O)[C@H](CC(N)=O)NC(=O)[C@@H](CC(C)C)NC(=O)[C@@H](Cc1ccc(O)cc1)NC(C)=O)[C@@H](C)O)C(=O)N[C@@H](Cc1c[nH]c2ccccc12)C(N)=O
Reply | 8.70

----------
Experiment: AUC (0 to 24 hrs) in Sprague-Dawley rat plasma at 1 mg/kg, sc by LC/MS analysis
Assay type: ADME, organism-based
Parameters: dose 1 mg/kg, time < 24 hr, route subcutaneous
Where a SMILES comes first, the peptide text is derived from it. [ ]: non-standard residue; d: D form. Phe(3-F) = N[C@@H](Cc1cccc(F)c1)C(=O)O; Arg(Me) = CNC(=N)NCCC[C@H](N)C(=O)O; azaGly = NNC(=O)O
For each entry below, report its AUC(0-t) at 24 h value.
Give bare numbers, in ng·h/mL.

compound	readout-units	AUC(0-t) at 24 h
CNC(=N)NCCC[C@H](NC(=O)[C@H](CC(C)C)NC(=O)NNC(=O)[C@H](Cc1ccccc1)NC(=O)[C@@H](NC(=O)[C@H](CC(N)=O)NC(=O)[C@@H]1C[C@@H](O)CN1C(=O)[C@@H](Cc1ccc(O)cc1)NC(C)=O)[C@@H](C)O)C(=O)N[C@@H](Cc1c[nH]c2ccccc12)C(N)=O	ng·h/mL	679

As a next step, examine the compound that follows.
Ask | Quick one: AUC(0-t) at 24 h for CNC(=N)NCCC[C@H](NC(=O)[C@H](CC(C)C)NC(=O)NNC(=O)[C@H](Cc1cccc(F)c1)NC(=O)[C@@H](NC(=O)[C@H](CC(N)=O)NC(=O)[C@H](CCC(=O)O)NC(=O)[C@@H](Cc1ccc(O)cc1)NC(C)=O)[C@@H](C)O)C(=O)N[C@@H](Cc1c[nH]c2ccccc12)C(N)=O (Ac-[dY]ENT[Phe(3-F)][azaGly]L[Arg(Me)]W-NH2) ?
Reply | 1260

----------
Provide the recorded MRT for the entries that follow.
Assay: MRT in Sprague-Dawley rat plasma at 1 mg/kg, iv by LC/MS analysis
Type: ADME, organism-based
Where a SMILES comes first, the peptide text is derived from it. [ ]: non-standard residue; d: D form. Phe(3-F) = N[C@@H](Cc1cccc(F)c1)C(=O)O; Arg(Me) = CNC(=N)NCCC[C@H](N)C(=O)O; azaGly = NNC(=O)O
One number for each entry, in min.

compound	MRT [min]
CNC(=N)NCCC[C@H](NC(=O)[C@H](CC(C)C)NC(=O)NNC(=O)[C@H](Cc1ccccc1)NC(=O)[C@@H](NC(=O)[C@H](CC(N)=O)NC(=O)[C@@H]1C[C@@H](O)CN1C(=O)[C@@H](Cc1ccc(O)cc1)NC(C)=O)[C@@H](C)O)C(=O)N[C@@H](Cc1c[nH]c2ccccc12)C(N)=O [TAK-448]	37.2

Next:
Ask | Consider the compound shown here: CNC(=N)NCCC[C@H](NC(=O)[C@H](CC(C)C)NC(=O)NNC(=O)[C@H](Cc1cccc(F)c1)NC(=O)[C@@H](NC(=O)[C@H](CC(N)=O)NC(=O)[C@H](CCC(=O)O)NC(=O)[C@@H](Cc1ccc(O)cc1)NC(C)=O)[C@@H](C)O)C(=O)N[C@@H](Cc1c[nH]c2ccccc12)C(N)=O (Ac-[dY]ENT[Phe(3-F)][azaGly]L[Arg(Me)]W-NH2) What is its recorded MRT?
Reply | 31.8

----------
Molecular target: KiSS-1 receptor (Homo sapiens, UniProt Q969F8)
Test: Agonist activity at human KISS1R expressed in CHO/dhfr cells assessed as increase in intracellular Ca2+ levels measured for 180 secs by Fluo 3-AM dye based FLIPR assay
Where a SMILES comes first, the peptide text is derived from it. [ ]: non-standard residue; d: D form. Phe(3-F) = N[C@@H](Cc1cccc(F)c1)C(=O)O; Arg(Me) = CNC(=N)NCCC[C@H](N)C(=O)O; Thz = O=C(O)[C@@H]1CSCN1; 2Abz = Nc1ccccc1C(=O)O; Aib = CC(C)(N)C(=O)O; azaGly = NNC(=O)O
property-measured: pEC50
Answers are plain numbers, as −log10 of the molar value.

// known answers, use as guide
compound	pEC50
CNC(=N)NCCC[C@H](NC(=O)[C@H](CC(C)C)NC(=O)NNC(=O)[C@H](Cc1ccccc1)NC(=O)[C@@H](NC(=O)[C@H](CC(N)=O)NC(=O)[C@H](Cc1c[nH]c2ccccc12)NC(=O)[C@@H](Cc1ccc(O)cc1)NC(C)=O)[C@@H](C)O)C(=O)N[C@@H](Cc1c[nH]c2ccccc12)C(N)=O	9.21
CNC(=N)NCCC[C@H](NC(=O)[C@H](CC(C)C)NC(=O)NNC(=O)[C@H](Cc1ccccc1)NC(=O)[C@@H](NC(=O)[C@H](CC(N)=O)NC(=O)[C@@H]1CSCN1C(=O)[C@@H](Cc1ccc(O)cc1)NC(C)=O)[C@@H](C)O)C(=O)N[C@@H](Cc1c[nH]c2ccccc12)C(N)=O (Ac-[dY][Thz]NTF[azaGly]L[Arg(Me)]W-NH2)	8.64
CNC(=N)NCCC[C@H](NC(=O)[C@H](CC(C)C)NC(=O)NNC(=O)[C@H](Cc1cccc(F)c1)NC(=O)[C@@H](NC(=O)[C@H](CC(N)=O)NC(=O)C(C)(C)NC(=O)[C@@H](Cc1ccc(O)cc1)NC(C)=O)[C@@H](C)O)C(=O)N[C@@H](Cc1c[nH]c2ccccc12)C(N)=O (Ac-[dY][Aib]NT[Phe(3-F)][azaGly]L[Arg(Me)]W-NH2)	8.92

Hey, quick one: what's pEC50 for each of these?
1. CNC(=N)NCCC[C@H](NC(=O)[C@H](CC(C)C)NC(=O)NNC(=O)[C@H](Cc1ccccc1)NC(=O)[C@@H](NC(=O)[C@H](CC(N)=O)NC(=O)C1CN(C(=O)[C@@H](Cc2ccc(O)cc2)NC(C)=O)C1)[C@@H](C)O)C(=O)N[C@@H](Cc1c[nH]c2ccccc12)C(N)=O
2. CNC(=N)NCCC[C@H](NC(=O)[C@H](CC(C)C)NC(=O)NNC(=O)[C@H](Cc1ccccc1)NC(=O)[C@@H](NC(=O)[C@H](CC(N)=O)NC(=O)[C@@H](CCC(=O)O)NC(=O)[C@@H](Cc1ccc(O)cc1)NC(C)=O)[C@@H](C)O)C(=O)N[C@@H](Cc1c[nH]c2ccccc12)C(N)=O
3. CNC(=N)NCCC[C@H](NC(=O)[C@H](CC(C)C)NC(=O)NNC(=O)[C@H](Cc1ccccc1)NC(=O)[C@@H](NC(=O)[C@H](CC(N)=O)NC(=O)c1ccccc1NC(=O)[C@@H](Cc1ccc(O)cc1)NC(C)=O)[C@@H](C)O)C(=O)N[C@@H](Cc1c[nH]c2ccccc12)C(N)=O (Ac-[dY][2Abz]NTF[azaGly]L[Arg(Me)]W-NH2)

Reply |
1. 8.64
2. 7.66
3. 8.28

----------
For each record, write down the corresponding pEC50.
Molecular target: KiSS-1 receptor (Homo sapiens)
Experiment: Agonist activity at human KISS1R expressed in CHO/dhfr cells assessed as increase in intracellular Ca2+ levels measured for 180 secs by Fluo 3-AM dye based FLIPR assay
Where a SMILES comes first, the peptide text is derived from it. [ ]: non-standard residue; d: D form. Phe(3-F) = N[C@@H](Cc1cccc(F)c1)C(=O)O; Arg(Me) = CNC(=N)NCCC[C@H](N)C(=O)O; Hyp = O=C(O)[C@@H]1C[C@@H](O)CN1; azaGly = NNC(=O)O; βAla = NCCC(=O)O; Sar = CNCC(=O)O
One number for each entry, as −log10 of the molar value.

Take a look at these entries with their results.
compound	pEC50
CNC(=N)NCCC[C@H](NC(=O)[C@H](CC(C)C)NC(=O)NNC(=O)[C@H](Cc1ccccc1)NC(=O)[C@@H](NC(=O)[C@H](CC(N)=O)NC(=O)CN(C)C(=O)[C@@H](Cc1ccc(O)cc1)NC(C)=O)[C@@H](C)O)C(=O)N[C@@H](Cc1c[nH]c2ccccc12)C(N)=O (Ac-[dY][Sar]NTF[azaGly]L[Arg(Me)]W-NH2)	8.31
CNC(=N)NCCC[C@H](NC(=O)[C@H](CC(C)C)NC(=O)NNC(=O)[C@H](Cc1ccccc1)NC(=O)[C@@H](NC(=O)[C@H](CC(N)=O)NC(=O)CCNC(=O)[C@@H](Cc1ccc(O)cc1)NC(C)=O)[C@@H](C)O)C(=O)N[C@@H](Cc1c[nH]c2ccccc12)C(N)=O (Ac-[dY][βAla]NTF[azaGly]L[Arg(Me)]W-NH2)	8.48
CNC(=N)NCCC[C@H](NC(=O)[C@H](CC(C)C)NC(=O)NNC(=O)[C@H](Cc1cccc(F)c1)NC(=O)[C@@H](NC(=O)[C@H](CC(N)=O)NC(=O)[C@@H](Cc1c[nH]c2ccccc12)NC(=O)[C@@H](Cc1ccc(O)cc1)NC(C)=O)[C@@H](C)O)C(=O)N[C@@H](Cc1c[nH]c2ccccc12)C(N)=O (Ac-[dY][dW]NT[Phe(3-F)][azaGly]L[Arg(Me)]W-NH2)	8.85

Then this compound:
Ask | # get_value(readout= pEC50, system= KiSS-1 receptor (Homo sapiens)) for CNC(=N)NCCC[C@H](NC(=O)[C@H](CC(C)C)NC(=O)NNC(=O)[C@H](Cc1cccc(F)c1)NC(=O)[C@@H](NC(=O)[C@H](CC(N)=O)NC(=O)[C@@H]1C[C@@H](O)CN1C(=O)[C@@H](Cc1ccc(O)cc1)NC(C)=O)[C@@H](C)O)C(=O)N[C@@H](Cc1c[nH]c2ccccc12)C(N)=O (Ac-[dY][Hyp]NT[Phe(3-F)][azaGly]L[Arg(Me)]W-NH2)
Reply | 9.12
